Data origin: the supplement of paper PMC11865577

Test system: TO-N3 (biotin conjugate)
assay-remarks: pull-down binding Z-score (relative to library population); higher = stronger binding
run-conditions: RNA library: Library-2
Answer N if pull-down binding Z-score is under -0.2, and Y if it is -0.2 or more.

Examples from the recorded data:
sequence-data	tested-system	group-label
AAAUUGCAGACACUAGGACCAUGUCUUGGUUUUUGCAAUAAUG [hsa-mir-1248]	TO-N3 (biotin conjugate)	Y
CAGUUGAAACAUCAAAUUCGUUUGAUGUACUG	TO-N3 (biotin conjugate)	N
GGGUAGGGUUUGGGGGAGAGCGUGGGCUGGGGUUCAGGGACA [pre-miRNA-1229_WT_FL]	TO-N3 (biotin conjugate)	Y
AGGUUGGCUGGGCCAGGCCUGACCU [hsa-mir-4722]	TO-N3 (biotin conjugate)	Y

# next sequence below
Q) Determine whether this sequence has pull-down binding Z-score no lower than -0.2: GGCUCUGGGUCCUGCUCCUUAGAGCA [hsa-mir-2467]
A) Y

###

Test system: G-clamp-N3 (biotin conjugate)
assay-remarks: pull-down binding Z-score (relative to library population); higher = stronger binding
run-conditions: RNA library: Library-1 (pre-miRNA loops + repeats)
Answer f if pull-down binding Z-score is under -0.2, and t if it is -0.2 or more.

Q) Determine whether this sequence has pull-down binding Z-score no lower than -0.2: GCAGUCCUGUGGGAAUGAGAGAUGCCAAACUGGACCUGC [hsa-mir-3972]
A) t

Q) Also check UCCUGUAGUGUCUUAUAUACAAUACAGUAGGA [hsa-mir-613]
A) t

Q) Also check CUGGCCAUCAGUGUGGGCUAAC [hsa-mir-6732]
A) f

Q) Also check GGUGUCGAACUCAUGGCUGCCACC [hsa-mir-6782]
A) t

Q) Also check CCAUGGGGGCCUUGCUGUGU [hsa-mir-6808]
A) t

###

System: TO-N3 (biotin conjugate)
assay-remarks: pull-down binding Z-score (relative to library population); higher = stronger binding
run-conditions: RNA library: Library-2
metric: pull-down binding Z-score
Output spec: single numeric token, no unit.

sequence-data	metric	observed-measurement
UUGAGCAUCUUCUGGGCAGCUGA [hsa-mir-7854]	pull-down binding Z-score	0.397
CGGUGUGCAAAUGUGUGUGUGCGGUGUUAUGCCG [hsa-mir-4442]	pull-down binding Z-score	-0.869
ACGUCUGGCCGCGUGCGCAUGU [hsa-mir-3175]	pull-down binding Z-score	0.838
UGUGUUCAGUGGAACCAAGGUAAACACA [hsa-mir-624]	pull-down binding Z-score	1.56

Q) Lab note: need pull-down binding Z-score for "GACAUGUUCCUCGGAACUUGUC" on TO-N3 (biotin conjugate), anyone have it?
A) -1.35

Q) Also check GCACCUGUUUGUGAC [hsa-mir-4718]
A) -0.457

Q) Also check "UAGGUGUUUUAAUGUCUAAUUUAGGCAUGCCUUCUUACUGUACUGGUUACAGAGAAGGCUAUUUGAACUCUACUAAUGUCACUAUUGCAACCUA"
A) -0.0965

Q) Also check "UAGUGCAAAGAAUAGAGCUCGCACCGUAGCUGGUGUCUCUAUCUGUAGUACUA"
A) -0.0718

Q) Also check GCUCUAAUAAUUUAUUCUAAUAAUAAUUUAGAUC [hsa-mir-7976]
A) -1.19

Q) Also check "UAUUACAGAUCUUUACCAGGAGUUUUCUGUGGUG"
A) -0.72

Q) Also check "GCUUCUAGAAAGUGAACUCGUAAUCGGAGCUGUGAUCCUUCGUGGACAUCUUCGUAUUGCUGGACACCAUCUAGGACGC"
A) 0.335

Q) Also check CUUUCUGUUGUCUGAAAGAAAAGAAAG [hsa-mir-520c_520b_519c_519b]
A) 0.458

Q) Also check GCCCUGGAAUGAUGAUGGGC [IAV_invivo_PB1_2_Motif_20+IAV_invivo_PB1_2_Motif_20]
A) 0.138

Q) Also check GUUGCUGUACCUACAGGUUAUGUUGAUACACCUAAUAAUACAGAUUUUUCCAGAGUUAGUGCUAAACCACCGCCUGGAGAUCAAU [SHAPE_invitro_SARS-CoV-2_Multi_51_ComplexLevel_1]
A) 0.691

Q) Also check UGGAGGAAUACAAAUCCA [SHAPE_invitro_SARS-CoV-2_Motif_386]
A) 0.109

Q) Also check GGAAGACACAUGAGCAGUGCCUCCACUUCACGCCUCUCCC [hsa-mir-6780b]
A) 0.543

Q) Also check CUGUCCUGGACUGGGGUCAGACUGUGCCCCGAGGAGAAGCAG [hsa-mir-922]
A) 0.794

Q) Also check AUCAGGCAGUUUCCUG [hsa-mir-4289]
A) -0.16

Q) Also check AGUUUCUGGAAGUUCUGACAUUCCAGAAACU [hsa-mir-3199-1]
A) -1.1

###

Attribute: pull-down binding Z-score
Tested on: TO-N3 (biotin conjugate)
assay-remarks: pull-down binding Z-score (relative to library population); higher = stronger binding
run-conditions: RNA library: Library-2
Output spec: single numeric token, no unit.

// solved cases for pull-down binding Z-score follow
sequence-data	pull-down binding Z-score
AUGUCCCUUUAGUUCAAAGU [hsa-mir-2052]	-0.283
GGCCGCAAAUUGCACAAUUUGCCCCC [SHAPE_invivo_SARS-CoV-2_Motif_557]	0.62
CCAAGGCUCUGGGGUCUCACCCUUGG [hsa-mir-6842]	0.386
UCUUCCCAGAAUUGGGAAAA [hsa-mir-320c-2]	-1.33
CUAAGCUAUGGACUGCUAUGGACUGCUAG [hsa-mir-4473]	0.172

Q) Lab note: need pull-down binding Z-score for CAGCACUGAGCAGGCAGUGUUGU [hsa-mir-4288] on TO-N3 (biotin conjugate), anyone have it?
A) -0.149

###

System: TO-3-N3 (biotin conjugate)
assay-remarks: pull-down binding Z-score (relative to library population); higher = stronger binding
run-conditions: RNA library: Library-2
Answer Not satisfied if pull-down binding Z-score is under -0.8, and Satisfied if it is -0.8 or more.

Examples from the recorded data:
sequence-data	tested-system	group-label
AUCUUAGGGAAUUUGUGUUUAAGAAUAUUGAUGGUUAUUUUAAAAUAUAUUCUAAGCACACGCCUAUUAAUUUAGUGCGUGAUCUCCCUCAGGGU	TO-3-N3 (biotin conjugate)	Satisfied
AGAAGGCCUAUGGUGAUUUGCAUUCUU [hsa-mir-6875]	TO-3-N3 (biotin conjugate)	Satisfied
GCAGUGUCGUGGUCACAGCUUGCUGC [hsa-mir-1273h]	TO-3-N3 (biotin conjugate)	Satisfied
AAUGAGUUUUACGCAUAUUUGCGUAAACAUU	TO-3-N3 (biotin conjugate)	Not satisfied

Q) Determine whether this sequence has pull-down binding Z-score no lower than -0.8: GAUUGCUAAUAGUACCAAUC [hsa-mir-34c]
A) Satisfied

###

Test system: TO-N3 (biotin conjugate)
assay-remarks: pull-down binding Z-score (relative to library population); higher = stronger binding
run-conditions: RNA library: Library-2
Grouping by measured pull-down binding Z-score is done with the following cut points: label 0: < -0.5; label 1: ≥ -0.5 and < 0.1; label 2: ≥ 0.1

Examples from the recorded data:
sequence-data	tested-system	group-label
AGAACUUUGGUUUU [hsa-mir-4434]	TO-N3 (biotin conjugate)	label 0
GCAAGGUUGUUGGUGAUAUGGCUUCCUCUC [hsa-mir-4685]	TO-N3 (biotin conjugate)	label 1
UAGGCUGUGCAGGUCCCAAUGGGCCUA [hsa-mir-26a-1]	TO-N3 (biotin conjugate)	label 2

Q) Band for the recorded pull-down binding Z-score of GCCUGUGUAAAUGGU [IAV_invivo_NA_6_Motif_8+IAV_invivo_NA_6_Motif_8] ?
A) label 1

Q) Also check GAACCCAAGAAAAGCUGACUUGGAGGUCCC [hsa-mir-4667]
A) label 2

Q) Also check GGCAUCUGCGGGCC [IAV_invivo_NP_5_Motif_21+IAV_invivo_NP_5_Motif_21]
A) label 0

Q) Also check AAGACACUAUCUGACAACAACAGGGCUCUU [hsa-mir-550b-2]
A) label 2

Q) Also check GGUAGGUUACGUCAUGCUGUUCUACC [hsa-mir-140]
A) label 1

Q) Also check GCAUUUUAUCUAAGAUACACACAAAGCAAAUGC [hsa-mir-4439]
A) label 2

Q) Also check AAUUUUUUUUUAAUUUAAAAAAUU [hsa-mir-3938]
A) label 0

Q) Also check "GGCUAUGUAACACAUGGCU"
A) label 1

###

Test system: TO-3-N3-2 (biotin conjugate)
assay-remarks: pull-down binding Z-score (relative to library population); higher = stronger binding
run-conditions: RNA library: Library-2
metric: pull-down binding Z-score
Output spec: single numeric token, no unit.

// solved cases for pull-down binding Z-score follow
sequence-data	pull-down binding Z-score
GUUUGGGUGCGGUUGGGAGUCUCUAAU [hsa-mir-200c]	1.39
GGCUGCAGGCCCGGCCCCUCUC [hsa-mir-6787]	0.126
GGCAGCGAGCC [IAV_invivo_NP_5_Motif_25+IAV_invivo_NP_5_Motif_25]	-0.633
AUAGUUUUAGGGUCACACCCACCACUGGGAGAUAACUAU [hsa-let-7a-1]	0.205
GUGAACCUGAAUUUGCCUUGGGUUUCCU [hsa-mir-670]	-0.132

Please find the next sequence below.
Q) Lab note: need pull-down binding Z-score for "AAGAGAAAGUCAACAUCAAUAUUGUUGGUGACUUUAAACUU" on TO-3-N3-2 (biotin conjugate), anyone have it?
A) -0.0741
